These measurements were taken from ChEMBL document CHEMBL1155519.

// each record: one item and its pKi for UniProtKB P50613
Sequence (P50613 whole entry): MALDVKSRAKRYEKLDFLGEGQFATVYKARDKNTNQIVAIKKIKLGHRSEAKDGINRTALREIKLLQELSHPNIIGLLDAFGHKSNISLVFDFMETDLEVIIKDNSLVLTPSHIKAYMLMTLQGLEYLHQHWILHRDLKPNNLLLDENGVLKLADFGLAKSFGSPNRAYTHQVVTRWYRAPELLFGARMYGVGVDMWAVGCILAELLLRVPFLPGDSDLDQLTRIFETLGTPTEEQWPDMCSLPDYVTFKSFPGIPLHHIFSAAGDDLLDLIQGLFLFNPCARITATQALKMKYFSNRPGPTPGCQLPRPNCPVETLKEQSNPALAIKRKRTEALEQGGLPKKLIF
pKi: −log10 of the molar value.
Assay Metric: pKi

1) CC(=O)N1CCN(c2ccc(Nc3nccc(-c4sc(C)nc4C)n3)cc2)CC1    5.55
2) CC(=O)N1CCN(c2ccc(Nc3nccc(-c4sc(N)nc4C)n3)cc2)CC1    5.67
3) Cc1nc(C)c(-c2ccnc(Nc3ccc(N)cc3)n2)s1    5.59
4) CCNc1nc(C)c(-c2ccnc(Nc3cc(OC)c(OC)c(OC)c3)n2)s1    5.86

====

Reported Ki is given for each of the following molecules.
molecular target: UniProt P24941
Assay Metric: Ki (µM)

1. CCNc1nc(C)c(-c2ccnc(Nc3ccc(CNC(C)=O)cc3)n2)s1    0.032
2. CNc1ccc(Nc2nccc(-c3sc(C)nc3C)n2)cc1    0.286
3. Cc1nc(C)c(-c2ccnc(Nc3ccc(N4CCOCC4)cc3)n2)s1    1.04

====

// each record: one item and its log10 of Ki for Cyclin-dependent kinase 2 (Homo sapiens, UniProt P24941)
Assay Metric: log10 of Ki (log10 of the value in nM)

1. CNc1nc(C)c(-c2ccnc(Nc3ccc(N4CCOCC4)cc3)n2)s1    2.19
2. CCNc1nc(C)c(-c2ccnc(Nc3cc(OC)c(OC)c(OC)c3)n2)s1    2.67
3. COc1cc(Nc2nccc(-c3sc(C)nc3C)n2)cc(OC)c1OC    2.38
4. Cc1nc(C)c(-c2ccnc(Nc3ccc(N4CCN(S(C)(=O)=O)CC4)cc3)n2)s1    3.60
5. CCNc1nc(C)c(-c2ccnc(Nc3ccc(N4CCOCC4)cc3)n2)s1    2.18
6. Cc1nc(C)c(-c2ccnc(Nc3ccc(N)cc3)n2)s1    2.23

====

molecular target: Cyclin-dependent kinase 1 (Homo sapiens, UniProt P06493)
Sequence (P06493 whole entry): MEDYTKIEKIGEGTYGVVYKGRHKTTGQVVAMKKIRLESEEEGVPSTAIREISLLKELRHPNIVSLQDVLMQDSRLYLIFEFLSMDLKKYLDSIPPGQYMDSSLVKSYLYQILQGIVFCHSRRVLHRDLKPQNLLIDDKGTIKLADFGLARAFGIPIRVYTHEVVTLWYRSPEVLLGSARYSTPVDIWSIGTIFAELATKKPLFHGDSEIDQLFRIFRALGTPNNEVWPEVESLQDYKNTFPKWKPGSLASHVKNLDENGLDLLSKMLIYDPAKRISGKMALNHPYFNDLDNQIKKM
Reported Ki is given for each of the following molecules.
Assay Metric: Ki

1. Cc1nc(C)c(-c2ccnc(Nc3ccc(N4CCN(S(C)(=O)=O)CC4)cc3)n2)s1    > 10000 nM
2. CNc1nc(C)c(-c2ccnc(Nc3cc(OC)c(OC)c(OC)c3)n2)s1    367 nM
3. Cc1nc(C)c(-c2ccnc(Nc3ccc(N(C)C)cc3)n2)s1    2520 nM
4. CCNc1nc(C)c(-c2ccnc(Nc3ccc(N4CCOCC4)cc3)n2)s1    > 10000 nM
5. COc1cc(Nc2nccc(-c3sc(C)nc3C)n2)cc(OC)c1OC    706 nM
6. Cc1nc(C)c(-c2ccnc(Nc3ccc(N)cc3)n2)s1    769 nM
7. CC(=O)N1CCN(c2ccc(Nc3nccc(-c4sc(N)nc4C)n3)cc2)CC1    > 10000 nM
8. Cc1nc(C)c(-c2ccnc(Nc3ccc(N4CCOCC4)cc3)n2)s1    > 10000 nM

====

biological target: UniProtKB P50750
Sequence (P50750 whole entry): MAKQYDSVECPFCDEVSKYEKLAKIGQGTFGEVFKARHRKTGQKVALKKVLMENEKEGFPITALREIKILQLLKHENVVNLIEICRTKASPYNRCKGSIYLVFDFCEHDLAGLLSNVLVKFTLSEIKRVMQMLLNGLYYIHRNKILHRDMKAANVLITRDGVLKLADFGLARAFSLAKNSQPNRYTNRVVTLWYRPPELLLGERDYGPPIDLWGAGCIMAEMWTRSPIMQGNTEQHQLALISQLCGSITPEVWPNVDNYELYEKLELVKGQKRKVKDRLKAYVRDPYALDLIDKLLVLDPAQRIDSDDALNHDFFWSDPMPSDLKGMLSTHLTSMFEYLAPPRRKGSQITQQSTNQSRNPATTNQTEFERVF
pKi: −log10 of the molar value.
Reported pKi is given for each of the following compounds.
Assay Metric: pKi

1. Cc1nc(C)c(-c2ccnc(Nc3ccc(N)cc3)n2)s1    6.47
2. CC(=O)N1CCN(c2ccc(Nc3nccc(-c4sc(C)nc4C)n3)cc2)CC1    5.94
3. CCNc1nc(C)c(-c2ccnc(Nc3cc(OC)c(OC)c(OC)c3)n2)s1    6.25
